Catalogue of Euclidean distance readings, one per entry.
- Tested on: DU145
- Assay remarks: Euclidean distance of Cell Painting phenotypic profile (signed KS, 77 features) to DMSO centroid (dimensionless distance); 5 or 10 uM (library dependent); higher = stronger phenotypic change vs DMSO (phenoactivity)
- Run conditions: 48 h
Structures can show the parent of a compound that is named as a salt.
Property: Euclidean distance

1. CC(=O)OCC[N+](C)(C)C [Acetylcholine iodide] = 0.869
2. CN(C)/N=N/c1[nH]cnc1C(N)=O = 1.94
3. c1ccc2[nH]c(-c3cscn3)nc2c1 = 1.31
4. O[C@@H]1CO[C@H]2[C@@H]1OC[C@@H]2O [Isosorbide] = 1.24
5. O=C1NCCc2[nH]c(-c3ccncc3)cc21 = 1.24
6. CCN(CC)CCOC(=O)C(c1ccccc1)c1ccccc1 [Adiphenine HCl] = 0.633

###

- Tested on: DU145
- Assay remarks: Euclidean distance of Cell Painting phenotypic profile (signed KS, 77 features) to DMSO centroid (dimensionless distance); 5 or 10 uM (library dependent); higher = stronger phenotypic change vs DMSO (phenoactivity)
- Run conditions: 48 h
Where a name gives a salt, the structure may show the parent alone.
Catalogue of Euclidean distance readings, one per entry.
Property: Euclidean distance

1) CN[C@@H]1[C@@H](O)[C@@H](O[C@@H]2[C@@H](O)[C@H](O[C@H]3OC(CN)=CC[C@H]3N)[C@@H](N)C[C@H]2N)OC[C@]1(C)O [Sisomicin sulfate] = 0.985
2) NC[C@H](O)c1ccc(O)c(O)c1 [Noradrenaline bitartrate monohydrate] = 0.963
3) O=C1CN(/N=C/c2ccc([N+](=O)[O-])o2)C(=O)N1 [Nitrofurantoin] = 1.02
4) COc1ncnc(NS(=O)(=O)c2ccc(N)cc2)c1OC [Sulfadoxine] = 0.743
5) CCCCCCCN(CC)CCCC(O)c1ccc(NS(C)(=O)=O)cc1 (stereo not drawn) [Ibutilide Fumarate] = 1.13
6) CO[C@@]1(NC(=O)C(C(=O)O)c2ccc(O)cc2)C(=O)N2C(C(=O)O)=C(CSc3nnnn3C)CO[C@@H]21 (stereo partly drawn) [Latamoxef sodium] = 1.09
7) CC(C)NC[C@@H](O)COc1ccc(CC(N)=O)cc1 [(R)-(+)-Atenolol HCl] = 0.486
8) COc1ccc2cc3[n+](cc2c1OC)CCc1cc2c(cc1-3)OCO2 [Berberine HCl] = 0.626
9) Oc1c(I)cc(Cl)c2cccnc12 [Clioquinol] = 1.05
10) CCN1CCN(c2cc3c(cc2F)c(=O)c(C(=O)O)cn3C2CC2)CC1 [Enrofloxacin] = 0.711
11) C[C@H]1COc2c(C3(N)CC3)c(F)cc3c(=O)c(C(=O)O)cn1c23 [Pazufloxacin mesylate] = 0.975
12) C[C@H](Cn1cnc2c(N)ncnc21)OCP(=O)(O)O [Tenofovir] = 0.705
13) Cc1coc2c1C(=O)C(=O)c1c-2ccc2c1CCCC2(C)C [Tanshinone IIA] = 0.982
14) C#C[C@]1(O)CC[C@H]2[C@@H]3CCC4=CC(=O)CC[C@@H]4[C@H]3CC[C@@]21CC [Levonorgestrel] = 0.624
15) O=S(=O)(NCCNC/C=C/c1ccc(Br)cc1)c1cccc2cnccc12 = 2.19
16) COCCOc1cnc2ccn([C@H](C)c3nnc4c(F)cc(-c5cnn(C)c5)cn34)c(=O)c2c1 = 1.5
17) CC(=O)OCC[N+](C)(C)C [Acetylcholine Chloride] = 1.22
18) CC[C@]12CCCN3CCc4c(n(c5ccccc45)[C@@](O)(C(=O)OC)C1)[C@@H]32 [Vincamine] = 0.578
